Target: T1, human CCL17 (human, UniProt Q92583 24-94)
T1 construct: Biotinylated in the Fab ELISAs; also called huCCL17; Bt-huCCL17
T1 sequence: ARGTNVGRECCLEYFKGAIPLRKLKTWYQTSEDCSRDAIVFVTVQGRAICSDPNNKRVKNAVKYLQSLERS
Experiment: MSD-SEA; affinity for human CCL17 against that for cyno CCL17
Would you please tag the item Fulfilled when its Fold binding human/cyno CCL17 is 60 fold or above, and Not fulfilled when it is below?

These solved cases illustrate the format of a correct answer.
C17B257 (antibody, IgG1, V domains shown, Expressed as IgG1; Light chain N50A (Kabat) variant of C17B234) VH: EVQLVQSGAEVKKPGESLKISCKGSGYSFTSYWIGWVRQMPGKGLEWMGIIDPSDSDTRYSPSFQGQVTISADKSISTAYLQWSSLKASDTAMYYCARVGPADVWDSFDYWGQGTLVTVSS VL: DIVMTQSPDSLAVSLGERATINCKSSQSVLLSFDNINKLAWYQQKPGQPPKLLIYAASTRESGVPDRFSGSGSGTDFTLTISSLQAEDVAVYYCQQFYSVPSTFGQGTKVEIK; Fulfilled
C17B263 (antibody, IgG1, V domains shown, Expressed as IgG1; Light chain N50T (Kabat) variant of C17B234) VH: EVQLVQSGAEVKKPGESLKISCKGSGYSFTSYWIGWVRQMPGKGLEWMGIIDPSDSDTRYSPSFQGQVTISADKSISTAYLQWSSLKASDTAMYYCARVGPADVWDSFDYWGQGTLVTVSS VL: DIVMTQSPDSLAVSLGERATINCKSSQSVLLSFDNINKLAWYQQKPGQPPKLLIYTASTRESGVPDRFSGSGSGTDFTLTISSLQAEDVAVYYCQQFYSVPSTFGQGTKVEIK; Fulfilled
C17B295 (antibody, IgG1, V domains shown, Expressed as IgG1; Heavy chain D100bE (Kabat) paired with the light chain of C17B258) VH: EVQLVQSGAEVKKPGESLKISCKGSGYSFTSYWIGWVRQMPGKGLEWMGIIDPSDSDTRYSPSFQGQVTISADKSISTAYLQWSSLKASDTAMYYCARVGPADVWESFDYWGQGTLVTVSS VL: DIVMTQSPDSLAVSLGERATINCKSSQSVLLSFDNINKLAWYQQKPGQPPKLLIYDASTRESGVPDRFSGSGSGTDFTLTISSLQAEDVAVYYCQQFYSVPSTFGQGTKVEIK; Fulfilled
C17B264 (antibody, IgG1, V domains shown, Expressed as IgG1; Light chain N50I (Kabat) variant of C17B234) VH: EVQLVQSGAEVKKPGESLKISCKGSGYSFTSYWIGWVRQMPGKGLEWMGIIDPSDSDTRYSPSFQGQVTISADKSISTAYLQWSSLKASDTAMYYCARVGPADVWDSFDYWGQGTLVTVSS VL: DIVMTQSPDSLAVSLGERATINCKSSQSVLLSFDNINKLAWYQQKPGQPPKLLIYIASTRESGVPDRFSGSGSGTDFTLTISSLQAEDVAVYYCQQFYSVPSTFGQGTKVEIK; Fulfilled

Quick check: does C17B243 (antibody, V domains shown, Full IgG1, kappa) VH: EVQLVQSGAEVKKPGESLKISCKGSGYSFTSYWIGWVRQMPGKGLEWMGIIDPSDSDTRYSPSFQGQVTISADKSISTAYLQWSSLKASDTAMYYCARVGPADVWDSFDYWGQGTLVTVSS VL: DIVMTQSPDSLAVSLGERATINCKSSQSVLNSFDNKNDLAWYQQKPGQPPKLLIYEASTRESGVPDRFSGSGSGTDFTLTISSLQAEDVAVYYCQQHWQTPLTFGQGTKVEIK have Fold binding human/cyno CCL17 greater than or equal to 60 fold?
Not fulfilled

Quick check: does C17B258 (antibody, IgG1, V domains shown, Expressed as IgG1; Light chain N50D (Kabat) variant of C17B234) VH: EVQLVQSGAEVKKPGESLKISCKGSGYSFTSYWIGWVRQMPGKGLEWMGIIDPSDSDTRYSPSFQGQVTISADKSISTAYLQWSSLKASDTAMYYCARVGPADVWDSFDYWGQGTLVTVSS VL: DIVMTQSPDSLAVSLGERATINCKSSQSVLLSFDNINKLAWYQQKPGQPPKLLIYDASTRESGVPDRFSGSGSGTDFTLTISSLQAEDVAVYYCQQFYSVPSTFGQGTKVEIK have Fold binding human/cyno CCL17 greater than or equal to 60 fold?
Fulfilled

Quick check: does C17B244 (antibody, V domains shown, Full IgG1, kappa) VH: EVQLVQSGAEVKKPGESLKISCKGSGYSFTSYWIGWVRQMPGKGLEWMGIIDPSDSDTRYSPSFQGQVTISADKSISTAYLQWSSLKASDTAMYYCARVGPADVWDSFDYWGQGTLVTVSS VL: DIVMTQSPDSLAVSLGERATINCKSSQSVLSSITNVNDLAWYQQKPGQPPKLLIYTASTRESGVPDRFSGSGSGTDFTLTISSLQAEDVAVYYCQQYYHDPFTFGQGTKVEIK have Fold binding human/cyno CCL17 greater than or equal to 60 fold?
Not fulfilled

Quick check: does C17B294 (antibody, IgG1, V domains shown, Expressed as IgG1; Heavy chain S100cT (Kabat) paired with the light chain of C17B258) VH: EVQLVQSGAEVKKPGESLKISCKGSGYSFTSYWIGWVRQMPGKGLEWMGIIDPSDSDTRYSPSFQGQVTISADKSISTAYLQWSSLKASDTAMYYCARVGPADVWDTFDYWGQGTLVTVSS VL: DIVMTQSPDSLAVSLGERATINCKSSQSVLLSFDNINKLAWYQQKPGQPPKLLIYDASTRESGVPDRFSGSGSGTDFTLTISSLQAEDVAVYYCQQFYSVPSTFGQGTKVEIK have Fold binding human/cyno CCL17 greater than or equal to 60 fold?
Not fulfilled

Quick check: does C17B240 (antibody, V domains shown, Full IgG1, kappa) VH: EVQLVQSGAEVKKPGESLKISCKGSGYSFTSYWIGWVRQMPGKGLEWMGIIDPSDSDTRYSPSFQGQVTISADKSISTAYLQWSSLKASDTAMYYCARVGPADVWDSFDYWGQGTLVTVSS VL: DIVMTQSPDSLAVSLGERATINCKSSQSVLYSHVNYNALAWYQQKPGQPPKLLIYNASTRESGVPDRFSGSGSGTDFTLTISSLQAEDVAVYYCQQYYTLPATFGQGTKVEIK have Fold binding human/cyno CCL17 greater than or equal to 60 fold?
Not fulfilled

Quick check: does C17B239 (antibody, V domains shown, Full IgG1, kappa) VH: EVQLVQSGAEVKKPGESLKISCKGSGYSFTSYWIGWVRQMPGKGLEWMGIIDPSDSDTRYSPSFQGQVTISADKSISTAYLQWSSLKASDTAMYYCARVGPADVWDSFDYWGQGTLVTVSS VL: DIVMTQSPDSLAVSLGERATINCKSSQSVLSSFTNTNTLAWYQQKPGQPPKLLIYHASTRESGVPDRFSGSGSGTDFTLTISSLQAEDVAVYYCQQYLIYPSTFGQGTKVEIK have Fold binding human/cyno CCL17 greater than or equal to 60 fold?
Not fulfilled

Taken from patent US20220348647A1.
